IC50 values for Human Factor XIIa (Homo sapiens, UniProt P00748), compiled from several publications.

Consider the worked cases shown below.
CCOc1ccc(C[C@@H](NC(=O)c2ccccc2C)C(=O)N[C@@H](Cc2cccnc2)C(=O)NCc2ccc(CN)cc2)cc1 :: > 10 µM
CCc1cc2c(C(=O)n3nc(N)c4c3CCCC4)cccc2n1C (single isomer, unassigned) :: > 50 µM
CN1CCC(CNc2nccnc2C(=O)Nc2ccc3nccnc3c2)CC1 :: 10 to 40 µM
CN1CCC(N(C)c2ncc(Cl)cc2C(=O)NCc2ccc3c(N)nccc3c2)CC1 :: 10 to 40 µM
COCc1nn(Cc2ccc(CN3CCCCC3=O)cc2)cc1C(=O)NCc1c(C#N)ccc(OC)c1F :: > 40 µM
CN(C)CCNCc1sc(C(=O)NCc2ccc3c(N)nccc3c2)cc1Cl :: 3 to 10 µM
CN1CCC(CNc2csc(C(=O)NCc3ccc4c(N)nccc4c3)c2)CC1 :: 10 to 40 µM
CCN1CCc2c(N)nn(C(=O)C3CCNc4ccc(F)cc43)c2C1 (stereo not drawn) :: 12 µM

Prompt line: For Cc1n[nH]c(C(=O)NCc2ccc3c(N)nccc3c2)c1NCC1CCN(C)CC1 , what is its reported IC50?
Response line: 10 to 40 µM

Prompt line: Check CNC(=O)N1CCc2c(N)nn(C(=O)C3CCNc4ccccc43)c2C1 (stereo not drawn) too.
Response line: 95 µM

Prompt line: Next entry: CC(C)S(=O)(=O)N1CCc2c(nn(C(=O)C3CCNc4ccc(F)cc43)c2N)C1 (stereo not drawn)
Response line: 0.08 µM

Prompt line: Now consider CCc1csc(C)c1C(=O)n1nc2c(c1N)CCCC2 (single isomer, unassigned) .
Response line: 5 µM

Prompt line: // query: Nc1c2c(nn1C(=O)c1coc3ccccc13)CCCC2
Response line: 1.2 µM
